Target: T1, recombinant human VEGF165 (human, UniProt P15692-4 27-191, biotinylated (Sulfo-NHS-LC-Biotin) in the competition assays)
T1 construct: also called hVEGF165; rhVEGF165
T1 sequence (P15692 other isoform, or with tags, fused parts or gaps limits assumed): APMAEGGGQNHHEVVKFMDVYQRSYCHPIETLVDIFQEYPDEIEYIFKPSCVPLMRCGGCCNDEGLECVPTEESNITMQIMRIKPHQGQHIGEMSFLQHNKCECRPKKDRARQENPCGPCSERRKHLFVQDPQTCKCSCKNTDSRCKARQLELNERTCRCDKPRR
Assay: Biacore, periplasmic extract, VEGF165 chip, two phase decay fit
Parameters: unit not given here
Method: Dissociation rates of inhibitory VHHs are analyzed on Biacore (Biacore T100 instrument, GE Healthcare). HBS-EP+ buffer is used as running buffer and experiments are performed at 25° C. […] After immobilization, surfaces are deactivated with 10 min injection of 1 M ethanolamine pH8.5. A reference surface is activated and deactivated with respectively EDC/NHS and ethanolamine. […] The of the processed curves is evaluated by fitting a two phase decay model in the Biacore T100 Evaluation software v2.0.1.
Each entry below lists one item and its recorded kd(fast) value.

[
  {
    "binder": "VEGFBII39E02 (VHH, not shown: small tags and cut ends) VHH: EVQLVESGGGLVQPGDPLKLSCAFSGRTFSSYSMGWFRQAQGKEREFVVAISSSGGYIYDSVSLEGRFTISRDNTKNTVYLQTPSLKPEDTADYYCAASRAYGSSRLRLADTYDYWGQGTQVTVSS",
    "kd(fast)": 0.019
  },
  {
    "binder": "VEGFBII23D11 (VHH, not shown: small tags and cut ends) VHH: EVQLVESGGGLVQPGDSLRLSCAFSGRTFSSYSMAWFRQAQGKEREFVVAISSGGFIYDAVSLEGRFTISRDNTKNTVYLQTPSLKPEDTAVYYCAASRAYGSSRLRLADTYDYWGQGTQVTVSS",
    "kd(fast)": 0.019
  },
  {
    "binder": "VEGFBII62D10 (VHH, not shown: small tags and cut ends) VHH: EVQLVESEGGLVQAGDSLRLSCAASGRTFSSYSMGWFRQAQGKEREFVVAISSSGNYKYDSVSLEGRFTISRDNTKNTVYLQINSLKPEDTAVYYCAASRAYGSSRLRLGDTYDYWGQGTQVTVSS",
    "kd(fast)": 0.019
  },
  {
    "binder": "VEGFBII23A08 (VHH, not shown: small tags and cut ends) VHH: EVQLVESGGGLVQTGDSLRLSCVASGRTFSSYSMGWFRQAQGKEREFVVAISNGGYKYDSVSLEGRFTISRDNTKNTVYLQINSLKPEDTAVYYCAASRAYGSSRLRLADTYDYWGQGTQVTVSS",
    "kd(fast)": 0.013
  }
]
